Origin of the recorded values: ChEMBL document CHEMBL2016532

- System tested: Serine/threonine-protein kinase pim-1 (Homo sapiens, UniProt P11309)
- Sequence (P11309 whole entry): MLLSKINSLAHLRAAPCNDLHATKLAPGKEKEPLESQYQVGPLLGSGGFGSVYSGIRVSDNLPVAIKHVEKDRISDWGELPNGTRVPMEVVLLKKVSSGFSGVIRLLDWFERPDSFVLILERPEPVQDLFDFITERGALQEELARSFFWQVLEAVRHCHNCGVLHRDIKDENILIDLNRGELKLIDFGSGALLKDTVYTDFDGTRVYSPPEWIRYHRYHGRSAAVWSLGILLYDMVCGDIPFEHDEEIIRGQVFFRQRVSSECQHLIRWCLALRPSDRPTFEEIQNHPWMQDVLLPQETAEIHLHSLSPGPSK
- Procedure summary: Inhibition of human recombinant Pim1 using RSRHSSYPAGT as substrate and 30 uM ATP by radiometric assay
pIC50: −log10 of the molar value.
Is pIC50 at least 8? Then MET. If not, NOT MET.

These recorded examples may help you get a feel for the data.
Clc1ccccc1Nc1nc2c(-c3nnc[nH]3)cccc2c2sccc12    MET
CNC(=O)c1cccc2c1nc(Nc1ccccc1Cl)c1ccsc12    MET
COc1ccc(Nc2nc3c(-c4nnc[nH]4)cccc3c3sccc23)cc1    MET

Q) Dear colleague, could you confirm whether FC(F)(F)Oc1ccc(Nc2nc3c(-c4nnc[nH]4)cccc3c3sccc23)c(Cl)c1 has pIC50 at or above 8?
A) NOT MET

Q) Decide: is the reported value of pIC50 for Fc1ccccc1Nc1nc2c(-c3nnc[nH]3)cccc2c2sccc12 equal to or greater than 8?
A) MET

---

- Test system: K562
- Procedure summary: Antiproliferative activity against human K562 cells after 48 hrs by alamar blue assay
- Format: functional, cell-based
- Condition info: K562, 48 h
Label Fulfilled when EC50 is strictly below 6 µM; otherwise label Not fulfilled.

Fc1cccc(Nc2nc3c(-c4nnc[nH]4)cccc3c3sccc23)c1    Not fulfilled

Q) Lab note: EC50 threshold 6 µM. Does this molecule come in strictly under it? Fc1ccccc1Nc1nc2c(-c3nnc[nH]3)cccc2n2cncc12
A) Fulfilled

Q) Identify whether the molecule C#Cc1cccc(Nc2nc3c(-c4nnc[nH]4)cccc3c3sccc23)c1 records EC50 below 6 µM.
A) Not fulfilled

Q) Is EC50 strictly under 6 µM for the entry COc1ccc(Nc2nc3c(-c4nnc[nH]4)cccc3c3sccc23)cc1 ?
A) Not fulfilled

---

pIC50 tested on Casein kinase II alpha/beta (Homo sapiens, UniProt P68400): recorded values
Sequence (P67870 whole entry): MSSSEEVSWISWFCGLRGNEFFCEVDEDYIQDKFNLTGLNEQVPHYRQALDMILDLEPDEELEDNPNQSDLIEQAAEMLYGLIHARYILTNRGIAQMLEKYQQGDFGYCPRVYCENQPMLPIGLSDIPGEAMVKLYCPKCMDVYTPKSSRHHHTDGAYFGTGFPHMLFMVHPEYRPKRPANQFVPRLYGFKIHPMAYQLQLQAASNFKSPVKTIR
Sequence (P68400 whole entry): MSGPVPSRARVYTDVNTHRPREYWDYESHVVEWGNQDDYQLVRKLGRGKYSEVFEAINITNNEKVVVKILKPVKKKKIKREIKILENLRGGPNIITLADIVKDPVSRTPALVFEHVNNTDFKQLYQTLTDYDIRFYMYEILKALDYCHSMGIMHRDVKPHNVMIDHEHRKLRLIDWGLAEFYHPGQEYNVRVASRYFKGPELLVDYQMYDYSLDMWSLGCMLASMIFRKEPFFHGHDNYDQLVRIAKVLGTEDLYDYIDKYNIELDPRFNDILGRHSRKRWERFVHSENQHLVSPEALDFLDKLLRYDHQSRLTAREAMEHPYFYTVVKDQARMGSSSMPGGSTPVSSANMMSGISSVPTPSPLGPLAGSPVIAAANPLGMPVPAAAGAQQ
// pIC50 is dimensionless: -log10 of concentration (M)

Clc1cccc(Nc2nc3c(-c4nnc[nH]4)cccc3c3sccc23)c1    7.82
c1cc(-c2nnc[nH]2)c2nc(Nc3ccncc3)c3ccsc3c2c1    6.67
COc1cccc(Nc2nc3c(-c4nnc[nH]4)cccc3c3sccc23)c1Cl    7.77
c1ccc(Nc2nc3c(-c4nnc[nH]4)cccc3c3ccsc23)cc1    7.52
Fc1ccccc1Nc1nc2c(-c3nnc[nH]3)cccc2n2cncc12    7.46
FC(F)(F)Oc1ccc(Nc2nc3c(-c4nnc[nH]4)cccc3c3sccc23)c(Cl)c1    7.12
Fc1ccccc1Nc1nc2c(-c3nnc[nH]3)cccc2n2cccc12    7.05
Fc1ccc(Nc2nc3c(-c4nnc[nH]4)cccc3c3sccc23)c(F)c1    7.96

Q) Lab note: need pIC50 with Casein kinase II alpha/beta (Homo sapiens, UniProt P68400) for entry Fc1ccccc1Nc1nc2c(-c3nnc[nH]3)cccc2c2sccc12 , please look it up.
A) 8.40

Q) Request body: readout pIC50, system Casein kinase II alpha/beta (Homo sapiens, UniProt P68400), query Fc1ccc(Nc2nc3c(-c4nnc[nH]4)cccc3c3sccc23)cc1 . Return the value.
A) 8.15

Q) Query pIC50 on Casein kinase II alpha/beta (Homo sapiens, UniProt P68400) for c1cc(-c2nnc[nH]2)c2nc(NC3CC3)c3ccsc3c2c1
A) 7.21

Q) Record lookup: for Casein kinase II alpha/beta (Homo sapiens, UniProt P68400), what pIC50 belongs to CN(C)CCOc1ccc(Nc2nc3c(-c4nnc[nH]4)cccc3c3sccc23)cc1 ?
A) 6.87
